- assay name: optical density change of DRC41 E. coli – strain DRC41, OD650, 24 h, E. coli filamentation project, primary screen (AID 1093);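 also: MC1000 strain lacking acrAB efflux and sulA so SOS filamentation is blocked; test concentration not given here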
- conditions used: E. coli DRC41 growth, higher = more signal, called active from +8 up or from −8 down
readout type: z-score
When you answer, write just the number.

Check out these entries, answers already filled in.
CC(C)(C)OC(=O)CC[C@]1(C(N)=O)N=C(c2ccc(OCCCO)cc2)O[C@H]1c1ccccc1 = 0.152
COc1ccc([C@H]2C[C@H]3C(I)=C[C@@H]2C(=O)[C@]32CO2)cc1 = 1.6
COc1cc(CO)cc(I)c1O[C@H]1C=C(C(=O)NCCO)C[C@@H](N(C(=O)c2cc3ccccc3oc2=O)C2CCCCCC2)[C@@H]1O = 1.86
COCCOC(=O)N1C(=O)[C@@]2(c3cc(C#CCCO)ccc31)[C@H](c1ccc(O)cc1)N1[C@H](c3ccccc3)[C@H](c3ccccc3)OC(=O)[C@H]1[C@@H]2C(=O)N1CCN(c2ncccn2)CC1 = 0.531
COc1ccc([Si](C)(C)[C@@H]2[C@@H](CC(=O)N3Cc4ccccc4C[C@H]3CO)O[C@]3(C(=O)N(Cc4cccc(N5CCC5=O)c4)c4ccccc43)[C@H]2C)cc1 = -0.509
C=C(CCCC)/C(=C/C[C@@H](OC(C)=O)c1ccccc1OCCO)c1cc(C(=O)OC)ccc1OC = 0.531

Problem: Dear colleague, please send me the reported z-score for COCCOC(=O)N1C(=O)[C@@]2(c3ccccc31)[C@H](C(=O)N1CCc3cc(OC)c(OC)cc3C1)[C@H]1C(=O)O[C@H](c3ccccc3)[C@H](c3ccccc3)N1[C@@H]2c1ccc(O)cc1 when you can.
Result: 2.31

Problem: Specify reported z-score for the compound shown: C=CCN(Cc1ccccc1)C(=O)C(c1cccs1)N(C(=O)/C=C\C(=O)O)c1ccc(CCOCCO)cc1 (stereo unspecified)
Result: 1.01

Problem: Annotate the compound O=C1O[C@@H](c2ccccc2)[C@@H](c2ccccc2)N2[C@@H](c3ccc(OCCO)cc3)[C@]3(C(=O)Nc4ccc(C#CCCO)cc43)[C@@H](C(=O)NC[C@H](O)c3ccccc3)[C@H]12 with its measured z-score.
Result: 0.695

Problem: # return recorded z-score for entry C=CCC(OC(C)=O)[C@@H]1[C@@H](N(Cc2cc3ccccc3o2)C(=O)Cc2ccc(OC)cc2)c2cc(OCCCO)ccc2N1C(=O)c1ccc2ccccc2c1 (stereo partly specified)
Result: -0.457

Problem: Item [N-]=[N+]=Nc1ccccc1C[C@@]1(C(=O)N2CCCCC2)N=C(c2ccc(OCCCO)cc2)O[C@@H]1c1ccccc1 : provide z-score
Result: 2.76

Problem: Name the recorded z-score of the compound listed here: COc1ccccc1CN1C(=O)c2ccccc2[C@@H](C(=O)NCc2ccccc2)[C@@H]1c1ccc(CO)cc1
Result: 0.409

Problem: Specify measured z-score for COc1cc(CO)cc(I)c1O[C@H]1C=C(C(=O)NCCO)C[C@@H](NC[C@@H]2CCCO2)[C@@H]1O .
Result: 1.6

Problem: Provide measured z-score value, entry: CCCCC(=C=CC[C@@H](O)c1ccc(CO)o1)CCO
Result: 0.572

Problem: Report z-score for COC(=O)c1c(CC[C@@H](CO)NC(=O)N[C@H](Cc2ccccc2)Cn2cc(-c3ccccn3)nn2)oc(C(C)=O)c1C(=O)OC
Result: -0.419

Problem: Identify z-score associated with the compound C=CCC(OC(C)=O)[C@@H]1[C@@H](N(Cc2ccc(-c3cccc(C(F)(F)F)c3)o2)C(=O)c2cccc3ccccc23)c2cc(OCCCO)ccc2N1C(=O)Cc1ccc2ccccc2c1 (stereo partly specified)
Result: -0.57
